Entry source: the supplement of paper PMC6555819

- Test system: PXR:RXRa (NR concentration 270 nM, RXRa partner concentration 90 nM)
- measurement.notes: PBM binding z-score (relative to random genomic background probes); higher = stronger binding; sequences stand for … in GC…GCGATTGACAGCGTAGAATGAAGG
# key: entry, value: PBM binding z-score
reported.metric: PBM binding z-score

In [3]: df
Out[3]:
                                 chain  recorded_measurement
 0  CCTAGTTGGTCAGGAGGACACACACCGGATATGA                -0.126
 1  CTACCAAGCTGAACAAGGTCGTTGATTACTATTC                  1.39
 2  CCTGCTAGGTCATGGTCAGCTATTCTACAGTATG                  1.28
 3  ACTATTAGTTGACTTAGGGCAACGGATACGACGC                 0.113
 4  ATACCAAGGTGATCGTGAGGTCGTAGATACTAAC                   2.2
 5  CCATACAGGTGAAAGGTAACTCAGTCTGGTACGC                  1.12
 6  CCTACTGGGCCAAGGTCATTGATCAGTCAAAGCA                   3.3
 7  CCTAGTTGTTCAAGGTCACACACGCTATAGGTAC                  4.73
 8  TTACCAGGGTGAAGGTCGTTGATCCCTCTGTAGA                   1.6
 9  TAATATAGGTAATACAGGTGAAAGTCGGCATCTA                 0.362
10  GATACAGGGTCATGGCCAGAGTACGCGTATTGAT                   4.2
11  CCTAGCAGGCCAATCTGGGTCACTCTAGGCTTGA                 0.544

* * *

- Test system: PPARg:RXRa IVT, anti-PPARg (NR concentration 270 nM, RXRa partner concentration 90 nM)
- measurement.notes: PBM binding z-score (relative to random genomic background probes); higher = stronger binding; sequences stand for … in GC…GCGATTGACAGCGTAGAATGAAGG
reported.metric: PBM binding z-score

>>> df
                                 chain  recorded_measurement
 0  ATCGAAAGGTCGAAGGTGAGTATGCCCACCCGAA                  2.48
 1  CGACCTAGGTCATCCAGGACAGTGAATACATTGA                  3.89
 2  CATACAGGGTCAGCTAGCCCAGAGTAGGGACGGC                  2.19
 3  GCATATAGGTAATACAAGGTGAAAGGCCGATTGT                  3.44
 4  ACTAGCAGGCCAAGTCTGGGTCACTCAAACAAAG                  3.03
 5  TCTAGCAGGCTAGAGGGTCACTCAAGAGGTACGG                  0.41
 6  CAAACTAGCTCACGAAAGGTCAAAGTCGAATGAC                  2.28
 7  CGTGCTAGGTCAATGGTCAGCTAAAGCAGCTCGC                  4.42
 8  AGAATGAGGTTACGAAAGATCAGGGAAACGCTTG                  3.64
 9  ATATGTAGGTTATCGGGTCATTCAATTTGCGCAT                  7.56
10  GCTTACGGGTCAAAGCTTATAGCATGAATAGAAT                  3.92
11  GCTGCTAGGTCAGGGTGGTCAGCTAACGGGTACG                  2.83
12  CATACAGGGTCAGCTAGGCCAGTGTAGGGACGGC                  2.44
13  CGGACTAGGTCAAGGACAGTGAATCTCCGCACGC                  7.26
14  CGAACTAGGTCATTGACAGGACAGTTAATAGTAA                  8.43
15  GCTTTCGGGTCAAAGGTTATAGCATGAATAGAAT                  5.81
16  CGAACTAGGTCATCCAGGACAGTGTATACATTGA                  8.01
17  ATCTCTAGGTAACCAAGTTCCGTGAATGCCGAAC                   2.9
18  CTCGAAAGATCGGTTGAGGTGAGTATACGGATAA                 0.165
19  TGAATGAAGTTATAAGATCAGGGAACGTTGCAAA                -0.333
20  TCTATTAGTTGATTATGGCAACCGAAACAGCGGA                 0.613
21  CGTCCAAGGTCAATGGTCAGTGAAGAGATGACGG                  3.44
22  AGAACGAGGGCAATGAGTTGATAGTACGGGTGGC                   2.4
23  GCAGACAGGTGAAACGAAGGTAACTCAGGGTGGC                 0.555
24  TCCAGCAGGCCAGAGGGTCACTCAAGAGGTACGG                 0.217
25  CGAACTAGGTCAGAACAGGACAGTGATGGATGAT                  7.04
26  TAGCCTAGGTCATACGGGCCAGTATAGTGTCGGC                  2.89
27  TAGCTTAGGTCATGGGCCAGTATACCACGCGAAC                  2.29
28  GCGACTGGGGCATCAGCAGGTTCCCATAACTTAA                  2.88
29  CGTCCAAGGTCAAAGGTCAGTGACGAGATGACGG                   5.8
30  CCTACTAGGTCATGGTCAGCTAATCTACAGTATG                  7.42
31  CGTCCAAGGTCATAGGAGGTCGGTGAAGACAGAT                  3.51
32  GCTAGCAGGCCATTTGAGTCACTCAATGACGGGC              -0.00694
33  CCTAGCAAGCCAATCTGGGTCACTCAAGGCTTGA                  4.86
34  TTACCAAGGTGAAAGATCGTTGATGCACGCCTTG                  2.99
35  CAAACTAGGTCACCGGAAGGTGAAAGTCCGCATG                  8.89
36  CGTCAAAGTTCAACTAGGGTAACGTAAAGCACGC                  3.83
37  GCTGCTAGGTCAACTGATCGTCAGCTAAAGCTCG                   4.1
38  ATCTCTAGGTAAAGACAGTTCAGTGAATGCAAAT                  1.73
39  AGTCAAAGTTCCCTAGGTAACGTAAGATTCAGCT                 0.612
40  AGTCAAAGTTCATCTACGTAACGTAAGATATGCT                  2.74
41  CGTCCAAGGTCAGCAGGTCAGTGTAAGCGACGTG                  3.67
42  CCTACTGGGCCACGAAAGGTCATTGGTTCAGTGA                  5.88
43  GGAACGAGGGCAAAGTTGATATCATCTGTCGACG                  4.19
44  TCTTGTAGATGAGCAGGTTAAGAAAGCTGGCCAA                -0.183
45  TCTATTAGTTTATTAGGGCAACCGAAACAGCGGA                  4.46
46  TCGAGTTGGTTACCAATGGGGCATTCAGCTTTCT                -0.405
47  CCGACTGGGGCAAAGGGTACCATACTCAGTACGA                   4.9
48  CCGACTGGGGAAAAGGTTACCATACTCAGTACGA                  2.89
49  CCTATTAGTTGATCATAAGGGCAACCGAAGCTCG                 0.623
50  TCATATAGGTAAATGCTAGGTGAAAGTCCGATCT                  2.74
